# Read-out: Monocyte Chemoattractant Protein-1 (MCP1), CCL2 (gene 6347)
# assay-procedure: BSK_4H_MCP1: BioMAP Diversity Plus: 4H Assay for Monocyte Chemoattractant Protein-1 (MCP1) Biomarker Activity (AID 2283018)
# measurement-setup: primary human endothelial cells (HUVEC); actives raise or lower the signal
# Experimental: BSK_4H is a cell-based, multiplexed-readout assay that uses umbilical vein endothelium, a human vascular primary cell, with measurements taken at 24 hours after chemical dosing in a 96-well plate.BSK_4H_MCP1 is an assay component measured in the BSK_4H assay. It measures MCP-1 antibody related to regulation of gene expression using ELISA technology.Data from the assay component BSK_4H_MCP1 was analyzed into 1 assay endpoint. […]
The source made the active and inactive calls. Rule for the calls: active = hit-call score of the fitted dose curve at least 0.9, where 1 is the maximum; inactive = score below 0.9.
Your answer must be one of the following: 1 (yes) = active, 0 (no) = inactive

Answered examples (2):
Cc1cccc([N+](=O)[O-])c1
0 (no)
CO/C=C(/C(=O)OC)c1ccccc1COc1cccc(C(F)(F)F)n1
0 (no)

Q: What classification did CCCCCCCCCc1ccc(O)cc1 end up with in this test?
A: 1 (yes)

Q: For CCC(C)(c1ccc(O)cc1)c1ccc(O)cc1 , what call appears in the results of this test?
A: 1 (yes)

Q: Lab log entry: Cc1ccc(O)c(C)c1 — outcome as called in the assay?
A: 0 (no)

Q: Any idea what this test logged for ClC1=C(Cl)[C@]2(Cl)[C@@H]3[C@H]4C[C@H]([C@@H]5O[C@H]45)[C@@H]3[C@@]1(Cl)C2(Cl)Cl ?
A: 1 (yes)

----------
# Read-out: Alkaline Phosphatase, Placental (ALPP) gene, ALPP (gene 250)
# assay-procedure: LTEA_HepaRG_ALPP: Life Technologies and Expression Analysis (LTEA) Assay for Alkaline Phosphatase, Placental (ALPP) gene using HepaRG (AID 2283468);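 for AC50: differentiated human HepaRG liver cells in serum-free induction medium; ALPP transcript by TaqMan qRT-PCR normalized to ACTB GAPDH and POLR2A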
# measurement-setup: mRNA level, 48 h; actives raise or lower the signal
# Experimental: LTEA_HepaRG is a cell based, multiplexed-readout assay that uses HepaRG, a human liver cell line, with measurements taken at 48 hours after chemical dosing on a 96-well plate.LTEA_HepaRG_ALPP is one of 102 assay component(s) measured in the LTEA HepaRG cell culture assay. It is a marker of Cell proliferation, survival, death.Data from the assay component LTEA_HepaRG_ALPP was analyzed into 1 endpoint. […]
Active and inactive are the calls of the source. Rule for the calls: active = hit-call score of the fitted dose curve at least 0.9, where 1 is the maximum; inactive = score below 0.9.
experimental-endpoint: AC50

CCC(C)(c1ccc(O)cc1)c1ccc(O)cc1
inactive
CCOCCOC(C)=O
inactive
ClC1=C(Cl)[C@]2(Cl)[C@@H]3[C@@H]4C[C@@H]([C@H]5O[C@@H]45)[C@@H]3[C@@]1(Cl)C2(Cl)Cl
inactive
ClC1=C(Cl)[C@]2(Cl)[C@@H]3[C@H]4C[C@H]([C@@H]5O[C@H]45)[C@@H]3[C@@]1(Cl)C2(Cl)Cl
inactive
C1CC2OC2CC1C1CO1 (stereo not drawn)
inactive
Oc1ccc(Cl)cc1Cl
inactive
CC(C)(O)C(=O)Nc1ccc([N+](=O)[O-])c(C(F)(F)F)c1
0.0354 µM (active)
C[C@]12CCC(=O)C=C1CC[C@@H]1[C@@H]2CC[C@@]2(C)[C@H]1CC[C@]2(C)O
24.5 µM (active)

Q: Return reported AC50; argument: CC1=C2C[C@H]3[C@@H](CC=C4C[C@@H](O)CC[C@@]43C)[C@@H]2CC[C@]12O[C@@H]1C[C@H](C)CN[C@H]1[C@H]2C
A: inactive
